- TARGET SYSTEM: UniProt Q09472
- Sequence (Q09472 whole entry): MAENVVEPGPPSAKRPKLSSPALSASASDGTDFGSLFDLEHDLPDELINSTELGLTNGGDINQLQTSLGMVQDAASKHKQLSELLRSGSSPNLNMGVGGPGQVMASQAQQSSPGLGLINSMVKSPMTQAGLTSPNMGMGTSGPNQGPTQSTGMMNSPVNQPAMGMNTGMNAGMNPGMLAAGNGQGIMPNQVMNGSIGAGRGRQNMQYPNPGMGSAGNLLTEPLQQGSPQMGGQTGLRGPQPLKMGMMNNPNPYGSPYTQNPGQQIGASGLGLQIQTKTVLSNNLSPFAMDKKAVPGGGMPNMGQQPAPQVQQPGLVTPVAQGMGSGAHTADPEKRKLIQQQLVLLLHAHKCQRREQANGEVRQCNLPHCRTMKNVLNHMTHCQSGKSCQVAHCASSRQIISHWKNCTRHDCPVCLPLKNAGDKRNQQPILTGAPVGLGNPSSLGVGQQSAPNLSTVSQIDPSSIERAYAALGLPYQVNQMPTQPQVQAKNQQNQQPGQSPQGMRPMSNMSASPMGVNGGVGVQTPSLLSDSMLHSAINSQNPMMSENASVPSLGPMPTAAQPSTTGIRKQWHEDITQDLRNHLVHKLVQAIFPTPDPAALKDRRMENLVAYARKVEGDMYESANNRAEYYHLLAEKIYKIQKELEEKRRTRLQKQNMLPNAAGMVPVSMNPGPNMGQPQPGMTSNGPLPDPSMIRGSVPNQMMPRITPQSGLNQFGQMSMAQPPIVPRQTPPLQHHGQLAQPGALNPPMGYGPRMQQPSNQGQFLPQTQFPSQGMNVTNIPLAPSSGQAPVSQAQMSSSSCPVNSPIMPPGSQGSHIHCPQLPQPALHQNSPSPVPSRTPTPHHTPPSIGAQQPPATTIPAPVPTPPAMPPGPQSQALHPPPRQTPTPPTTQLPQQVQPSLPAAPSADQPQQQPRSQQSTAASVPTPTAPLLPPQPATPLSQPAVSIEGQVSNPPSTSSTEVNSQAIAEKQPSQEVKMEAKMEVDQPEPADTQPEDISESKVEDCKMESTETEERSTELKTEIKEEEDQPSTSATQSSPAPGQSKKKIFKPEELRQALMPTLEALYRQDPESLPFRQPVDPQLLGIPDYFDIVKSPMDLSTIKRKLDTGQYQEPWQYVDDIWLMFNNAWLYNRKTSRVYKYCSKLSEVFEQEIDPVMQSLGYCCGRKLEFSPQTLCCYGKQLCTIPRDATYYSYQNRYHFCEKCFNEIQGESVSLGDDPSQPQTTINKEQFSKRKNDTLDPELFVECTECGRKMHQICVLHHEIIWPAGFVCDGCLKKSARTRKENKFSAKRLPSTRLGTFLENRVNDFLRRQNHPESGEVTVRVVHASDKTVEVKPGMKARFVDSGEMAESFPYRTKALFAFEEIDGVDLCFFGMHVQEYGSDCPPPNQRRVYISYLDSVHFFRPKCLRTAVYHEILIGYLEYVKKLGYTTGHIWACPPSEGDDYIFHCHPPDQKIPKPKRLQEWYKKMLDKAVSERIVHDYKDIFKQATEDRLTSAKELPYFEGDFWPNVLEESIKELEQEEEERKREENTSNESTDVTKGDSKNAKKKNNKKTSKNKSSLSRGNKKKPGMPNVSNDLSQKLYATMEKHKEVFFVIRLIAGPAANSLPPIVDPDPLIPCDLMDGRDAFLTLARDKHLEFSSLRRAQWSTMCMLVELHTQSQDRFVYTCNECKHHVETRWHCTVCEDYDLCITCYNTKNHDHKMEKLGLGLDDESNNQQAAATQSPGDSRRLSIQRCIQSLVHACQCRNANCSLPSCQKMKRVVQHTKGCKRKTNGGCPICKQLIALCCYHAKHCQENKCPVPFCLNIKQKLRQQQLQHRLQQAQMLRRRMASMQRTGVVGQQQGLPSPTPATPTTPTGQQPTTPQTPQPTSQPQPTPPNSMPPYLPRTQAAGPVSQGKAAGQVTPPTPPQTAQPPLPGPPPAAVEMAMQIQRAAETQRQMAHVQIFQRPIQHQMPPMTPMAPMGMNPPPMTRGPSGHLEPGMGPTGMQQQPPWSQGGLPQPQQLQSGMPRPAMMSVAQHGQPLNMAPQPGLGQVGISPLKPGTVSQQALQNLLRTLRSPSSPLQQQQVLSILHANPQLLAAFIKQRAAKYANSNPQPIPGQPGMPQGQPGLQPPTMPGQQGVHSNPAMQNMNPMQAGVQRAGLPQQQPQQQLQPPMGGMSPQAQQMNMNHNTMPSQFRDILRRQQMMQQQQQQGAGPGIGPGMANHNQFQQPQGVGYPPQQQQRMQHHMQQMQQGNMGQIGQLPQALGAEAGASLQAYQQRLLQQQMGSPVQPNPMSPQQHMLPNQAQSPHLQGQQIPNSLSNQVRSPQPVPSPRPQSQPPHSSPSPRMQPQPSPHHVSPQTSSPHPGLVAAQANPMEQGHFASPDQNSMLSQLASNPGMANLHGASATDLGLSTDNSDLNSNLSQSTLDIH
- PROTOCOL DESCRIPTION: Immunoblotting of P300 protein levels in LNCaP or 22RV1 cells
- Assay type: cell-based
- Parameters: LNCaP or 22RV1 cells that express CBP/P300 proteins were treated with GNE-781 or the bivalent compounds; endogenous in cells; host or cells: LNCaP (clone FGC) or 22RV1 cells
- CONDITION SET: read-out: Degradation (10 nM)
I'd appreciate it if you could supply inhibition at 0.01 µM values for the items below.

In: Look up inhibition at 0.01 µM of CC(=O)N1CCc2c(c(N3CCCc4cc(-c5cnn(C)c5)c(C(F)F)cc43)nn2C2CCN(CCN3CCC(CNc4cccc5c4C(=O)N(C4CCC(=O)NC4=O)C5=O)CC3)CC2)C1 (stereo not drawn) and report it.
Out: > 80%

In: Return the recorded inhibition at 0.01 µM value; entry: CC(=O)N1CCc2c(c(N3CCCc4cc(-c5cnn(C)c5)c(C(F)F)cc43)nn2C2CCN(CCN3CCC(COc4cccc5c4C(=O)N(C4CCC(=O)NC4=O)C5=O)CC3)CC2)C1 (stereo not drawn)
Out: < 20%

In: Please list inhibition at 0.01 µM recorded for the compound CC(=O)N1CCc2c(c(N3CCCc4cc(-c5cnn(C)c5)c(C(F)F)cc43)nn2C2CCN(C(=O)CCCCCCCn3c(=O)n(C4CCC(=O)NC4=O)c4ccccc43)CC2)C1 (stereo not drawn)
Out: > 80%

In: Consider the compound CNC(=O)N1CCc2c(c(N3CCCc4cc(-c5cnn(C)c5)c(C(F)F)cc43)nn2C2CCN(C(=O)CCCCCCn3c(=O)n(C4CCC(=O)NC4=O)c4ccccc43)CC2)C1 (stereo not drawn) and give its recorded inhibition at 0.01 µM.
Out: 50 to 80%

In: Give a short answer stating reported inhibition at 0.01 µM for CC(=O)N1CCc2c(c(N3CCCc4cc(-c5cnn(C)c5)c(C(F)F)cc43)nn2C2CCN(C(=O)CCCCCn3c(=O)n(C4CCC(=O)NC4=O)c4ccccc43)CC2)C1 (stereo not drawn) .
Out: 50 to 80%

In: Return inhibition at 0.01 µM for the following compound: CC(=O)N1CCc2c(c(N3CCCc4cc(-c5cnn(C)c5)c(C(F)F)cc43)nn2C2CCN(C(=O)CCCCCCCCn3c(=O)n(C4CCC(=O)NC4=O)c4ccccc43)CC2)C1 (stereo not drawn)
Out: > 80%
